Values were extracted from PubChem BioAssay AID743279.

assay: qHTS for Inhibitors of Inflammasome Signaling: IL-1-beta AlphaLISA Primary Screen; settings: THP-1 LPS/ATP IL-1B secretion, 16 h; at 57.5 µM, stronger effect = lower value; also: % is scaled to controls: 0 for no effect and ±100 for the full control effect
The whole screen tested about 360,000 compounds, of which about 17,000 (4.7%) were called active. Inconclusive results (about 5%) are left out. This excerpt belongs to a sample that is enriched for actives.
Endpoint Label: activity change (%)
Unit % implied. Number only.

- Molecule: "O=C1C(Sc2cccc(F)c2)=C[C@@]2(O)CC[C@@H](O)[C@]1(Sc1cccc(F)c1)[C@H]2O"
  Reported Result: 8.29
- Molecule: "COc1ccc(-c2oc3ncnc(NCCCO)c3c2-c2ccc(OC)cc2)cc1"
  Reported Result: -68.8
- Molecule: "CNC(=S)NNC(=O)c1oc2nc(-c3ccccc3)cc(-c3ccco3)c2c1N"
  Reported Result: -18
- Molecule: "CS(=O)(=O)c1sc2nc(-c3ccccc3)cc(-c3ccccc3)c2c1N"
  Reported Result: -67.8
- Molecule: "O=C(NCc1ccccc1)c1onc(CSc2nc3ccccc3[nH]2)c1C(=O)NCc1ccccc1"
  Reported Result: -5.65

// query Tell me the measured activity change of "Nc1cccc(-c2cc(-c3ccccc3)nc(-c3cccc(N)c3)n2)c1" , please.
// result -9.31

// query Entry under review: "COCCNc1ncnc2c1ncn2[C@H]1CN(Cc2ccc(OC)cc2)C[C@@H](CO)O1" . Reported activity change?
// result -0.989

// query What value of activity change has been reported for the following molecule? CC1(C(=O)NS(=O)(=O)Cc2cccc(Cl)c2)CCN1C(=O)Cc1ccccc1 (stereo not given)
// result 3.48

// query Reported activity change, molecule "CCOC(=O)C=Cc1ccc(C(=O)OCC)[nH]1" : ____
// result 12.1

// query Which activity change value belongs to CCc1oc(-c2ccc(OC)cc2)c(C(=O)OCCCCCO)c1C(C)OCCO (stereo not given) ?
// result -1.94

* * *

experiment: qHTS for Inhibitors of Inflammasome Signaling: IL-1-beta AlphaLISA Primary Screen; conditions: THP-1 LPS/ATP IL-1B secretion, 16 h; at 57.5 µM, stronger effect = lower value
Out of some 360,000 compounds screened, about 17,000 (4.7%) were called active. About 5% were inconclusive and are not listed. The sample as a whole holds a higher share of actives than the screen did.
Endpoint Label: activity change (%)
Please reply with the bare figure in % and do not write the unit itself.

Reference set, count: 2
- Compound: "O=C(NCCc1ccc(F)cc1)c1n[nH]c2ccccc12"
  activity change [%]: 29.4
- Compound: "O=C(NCCCO)c1cc2c([nH]c3ccccc32)c(-c2ccc(F)cc2)n1"
  activity change [%]: -65.7

// query So what's the measured activity change for this one? Cc1ccc(-c2ccc(CN3C(C(C)C)C(=O)N(Cc4cn(CCC5OCCO5)nn4)CCS3(=O)=O)cc2)cc1 (stereo not given)
// result 14.8

// query Look at this compound and give its reported activity change. "Cc1noc(C)c1COc1ccc(C(=O)NCCOc2ccccc2)cc1"
// result -10.6

// query What does the record list as activity change for CCCNC(=O)C1(C)CCN(C(=O)c2cc(F)ccc2C)C1 (stereo not given) ?
// result 34.1

* * *

Overview of recorded activity change for various compounds
experiment: qHTS for Inhibitors of Inflammasome Signaling: IL-1-beta AlphaLISA Primary Screen; details: THP-1 LPS/ATP IL-1B secretion, 16 h; at 57.5 µM, stronger effect = lower value
In all, about 360,000 compounds went through this assay and about 17,000 (4.7%) were called active. Another 5% or so got no clear call; they are omitted. Many of the other results were omitted from the sample, so actives are more common in it than they were.

- Compound: "Cc1c(C(=O)NCC2CC2)sc(=O)n1Cc1cccc(F)c1"
  activity change: "-16.4% (inactive)"
- Compound: "O=S1(=O)CC(N2CCN(CCO)CC2)CN1C1CCCC1 (stereo not given)"
  activity change: "-8.55% (inactive)"

// query Entry under review: "CCN1CCN(c2sc(S(C)(=O)=O)nc2S(=O)(=O)c2ccc(Cl)cc2)CC1" . Reported activity change?
// result -97.8% (active)

// query Requested read-out: activity change. Entry: "O=C(Nc1ccc(N2CCN(C(=O)c3ccccc3)CC2)c(Cl)c1)c1ncn[nH]1"
// result -4.07% (inactive)

// query // lookup activity change for "OC[C@@H]1CN(Cc2ccc3c(c2)OCO3)C[C@H](n2cnc3c(NCc4ccco4)ncnc32)O1"
// result 0.259% (inactive)

// query So what's the measured activity change for this one? "Clc1ccc(-n2nnnc2-c2cnc(-c3ccccn3)nc2-c2cccs2)cc1"
// result -21.9% (inactive)

// query Tell me the measured activity change of "COC(=O)N(C)C[C@@H]1OCc2cnnn2CCCC(=O)N([C@@H](C)CO)C[C@@H]1C" , please.
// result 1.38% (inactive)

// query Fill blank: measured activity change of the compound "CC(C)C[C@H]1CN([C@@H](Cc2ccccc2)CN2CCC[C@@H]2CN2C(=O)C(=O)NC[C@@H]2Cc2ccc(O)cc2)C(=O)C(=O)N1CCc1ccccc1" is ____.
// result 0% (inactive)

// query # activity change lookup, item "COc1cc(/C=N/O)cc(Br)c1OCc1cccc(Cl)c1"
// result -101% (active)

// query Field request: activity change | item: O=C(Nc1ccc(S(=O)(=O)NCC2CCCO2)cc1)c1ccc(F)cc1 (stereo not given)
// result 11.6% (inactive)

// query Which activity change value belongs to "COc1cc(/C=N/NC(=O)Cc2ccccc2)cc(OC)c1OC" ?
// result 11.4% (inactive)

// query Data request, read-out activity change, for "NC(=O)Cc1ccc2sc(-c3ccccc3)nc2c1"
// result -14.8% (inactive)

// query Suppose we examine the compound "Cc1ccccc1N1CCN(C(=O)c2cccnc2)CC1" ; what activity change value has been reported?
// result -6.96% (inactive)

// query Which activity change value belongs to "O=C(CCNC(=O)c1ccccc1Cl)NCc1ccco1" ?
// result 2.08% (inactive)

// query Bench note: what activity change did COc1ccc(S(=O)(=O)N2CCN(C(C)C(=O)Nc3ccc(C(C)C)cc3)CC2)cc1 (stereo not given) show?
// result -16.4% (inactive)

// query # query: activity change of entry "O=C(OCc1cn([C@H]2C[C@H](c3ccccc3)N(C(=O)c3cccs3)C[C@@H]2O)nn1)c1ccccc1"
// result 9.57% (inactive)

// query # lookup: activity change of "Cc1cccc(Nc2ccccc2C(=O)NCc2ccco2)c1C"
// result 3.14% (inactive)

// query activity change value for entry "CC(C)C[C@H]1CNC(=O)C(=O)N1C[C@@H]1CCCN1C[C@H](Cc1ccccc1)N1C[C@H](CC(C)C)N(CC2CCCCCC2)C(=O)C1=O"
// result 0% (inactive)

// query Suppose we examine the compound "FC(F)(F)c1nc(-c2ccccc2)ncc1-c1nnnn1-c1ccccc1" ; what activity change value has been reported?
// result -66.2% (active)

// query So what does the record say about activity change for CCN1C(=O)C(CC(=O)Nc2cc(C)ccc2C)SC1=Nc1ccc(S(N)(=O)=O)cc1 (stereo not given) ?
// result -5.39% (inactive)
